ASSAYED SYSTEM: cdk4/cyclin D1 (Homo sapiens, UniProt P11802)
Sequence (P11802 whole entry): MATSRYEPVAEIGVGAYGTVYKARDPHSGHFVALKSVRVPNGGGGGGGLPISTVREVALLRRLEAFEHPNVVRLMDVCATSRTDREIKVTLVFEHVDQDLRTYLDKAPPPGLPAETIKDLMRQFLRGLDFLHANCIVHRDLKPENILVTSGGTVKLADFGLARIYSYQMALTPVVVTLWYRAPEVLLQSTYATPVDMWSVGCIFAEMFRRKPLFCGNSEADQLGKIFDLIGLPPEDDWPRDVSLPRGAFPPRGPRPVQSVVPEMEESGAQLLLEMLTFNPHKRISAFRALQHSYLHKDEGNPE
Sequence (P24385 whole entry partner): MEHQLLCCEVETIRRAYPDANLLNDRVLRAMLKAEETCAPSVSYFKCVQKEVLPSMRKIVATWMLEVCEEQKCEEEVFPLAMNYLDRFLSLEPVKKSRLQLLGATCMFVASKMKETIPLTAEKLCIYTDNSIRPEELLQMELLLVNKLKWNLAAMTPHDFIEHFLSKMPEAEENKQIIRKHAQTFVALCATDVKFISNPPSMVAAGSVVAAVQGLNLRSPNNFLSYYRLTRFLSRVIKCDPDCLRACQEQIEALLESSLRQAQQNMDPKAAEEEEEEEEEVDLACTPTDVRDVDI
EXPERIMENT DESCRIPTION: Cyclin-dependent kinase assay, cdk4/cyclin D1
Assay type: biochemical
STATED CONDITIONS: cyclin D1/cdk4; GST-pRb substrate, 10 µM ATP
pIC50: −log10 of the molar value. Counter-ions that a name gives are not always drawn.
QUANTITY KIND: pIC50

INSERT INTO measurements (compound, assay_value) VALUES
  ('N[C@H]1CC[C@H](Nc2nc(NC3CCN(S(=O)(=O)c4ccc(Cl)c([N+](=O)[O-])c4)CC3)c3ncn(C4CCCC4)c3n2)CC1 [compound 140, dihydrochloride]', 7.12),
  ('N[C@H]1CC[C@H](Nc2nc(NC3CCN(C(=O)c4cccc5c4-c4ccccc4C5=O)CC3)c3ncn(C4CCCC4)c3n2)CC1', 5.76),
  ('CCCCCCc1ccc(C(=O)N2CCC(Nc3nc(N[C@H]4CC[C@H](N)CC4)nc4c3ncn4C3CCCC3)CC2)cc1', 6.20);
